Assign IC50 to each entry below.
molecular target: human BACE1 (Homo sapiens); test: Fluorescent kinetic assay, human BACE1 (FRET peptide substrate WABC-6); type: biochemical; conditions: fluorescent kinetic assay, 25 μM substrate WABC-6, pH 4.5, room temperature; read-out: IC50 (μM) BACE 1;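 further: fluorescence monitored at excitation 320 nm and emission 420 nm over 30 min, with the substrate cleavage rate taken as the linear slope of the signal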
Sequence (P56817 46-501): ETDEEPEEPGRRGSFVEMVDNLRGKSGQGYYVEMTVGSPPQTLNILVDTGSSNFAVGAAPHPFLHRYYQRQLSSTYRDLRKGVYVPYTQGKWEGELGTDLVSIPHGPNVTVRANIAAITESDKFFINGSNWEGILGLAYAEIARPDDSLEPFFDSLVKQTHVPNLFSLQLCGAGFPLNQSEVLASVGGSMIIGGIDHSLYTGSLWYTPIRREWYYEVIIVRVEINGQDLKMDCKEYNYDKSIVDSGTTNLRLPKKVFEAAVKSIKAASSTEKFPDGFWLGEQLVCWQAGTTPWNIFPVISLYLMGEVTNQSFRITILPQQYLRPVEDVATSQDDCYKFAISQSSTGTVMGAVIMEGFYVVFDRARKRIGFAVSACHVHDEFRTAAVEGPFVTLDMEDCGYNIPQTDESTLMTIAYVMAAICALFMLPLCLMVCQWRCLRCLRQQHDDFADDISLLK

Lab note: compound CCN/C(N)=N\C(=O)Cn1c(-c2ccccc2)ccc1C12CC3CC(CC(C3)C1)C2 [Example 390] tested on human BACE1 (Homo sapiens); recorded IC50 was 0.11 to 1 µM

Let me check: NC(=NC(=O)Cn1c(-c2ccccc2)ccc1-c1ccc(C(=O)NCC(F)(F)C(F)(F)F)cc1)NCCCO [Example 472] , system human BACE1 (Homo sapiens), measured IC50 is 1.1 to 5 µM

Field IC50 (human BACE1 (Homo sapiens)), entry CCCCc1ccc(-c2ccc(-c3ccccc3)n2CC(=O)NC(=N)N)cc1 [Example 449] : 0.11 to 1 µM

FYI, the data here is from patent US7488832B2.
